target: Polymerase basic protein 2 (Influenza A virus (strain A/Puerto Rico/8/1934 H1N1)); assay: Binding affinity to CM5 immobilized N-terminal His/Sumo tagged Influenza A virus (A/WSN/1933(H1N1)) PB2 CBD (318 to 486 residues) expressed in Escherichia coli by surface plasmon resonance assay
Sequence (P03428 whole entry, the tested form may be a part): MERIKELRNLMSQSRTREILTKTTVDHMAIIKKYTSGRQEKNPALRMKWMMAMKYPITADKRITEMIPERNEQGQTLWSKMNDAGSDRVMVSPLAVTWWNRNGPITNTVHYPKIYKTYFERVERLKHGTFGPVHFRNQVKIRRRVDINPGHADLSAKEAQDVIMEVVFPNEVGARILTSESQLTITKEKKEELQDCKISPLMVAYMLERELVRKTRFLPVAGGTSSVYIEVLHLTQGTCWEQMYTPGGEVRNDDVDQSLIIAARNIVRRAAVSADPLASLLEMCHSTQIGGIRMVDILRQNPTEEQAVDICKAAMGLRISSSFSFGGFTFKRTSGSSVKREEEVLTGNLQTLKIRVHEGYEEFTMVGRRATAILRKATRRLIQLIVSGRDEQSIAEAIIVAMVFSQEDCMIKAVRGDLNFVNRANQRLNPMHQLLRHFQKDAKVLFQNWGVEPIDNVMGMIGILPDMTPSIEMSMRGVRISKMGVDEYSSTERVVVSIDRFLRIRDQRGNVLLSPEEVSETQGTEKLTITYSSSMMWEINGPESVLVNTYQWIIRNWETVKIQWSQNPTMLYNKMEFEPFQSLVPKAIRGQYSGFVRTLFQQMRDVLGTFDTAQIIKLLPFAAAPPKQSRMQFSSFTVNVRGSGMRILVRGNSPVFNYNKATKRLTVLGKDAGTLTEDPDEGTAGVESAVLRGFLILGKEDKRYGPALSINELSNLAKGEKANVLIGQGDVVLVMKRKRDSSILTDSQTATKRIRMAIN
pKd: −log10 of the molar value.
Parameter threshold = 7. Response is TRUE when pKd meets or exceeds it, else FALSE.

Here are 5 molecules together with their reported answers.
O=C1c2ccccc2C(=O)c2cc(OC[C@H](O)Cn3cnc4ccccc43)ccc21 ... FALSE
O=c1[nH]c2ccc(NCc3ccc(Cl)c(Cl)c3)cc2[nH]1 ... FALSE
O=C(O)CSc1cc(O)c2c(c1O)C(=O)c1ccccc1C2=O ... FALSE
O=C(O)CSc1nc(-c2ccccc2)nc2c1oc1ccccc12 ... FALSE
O=C(O)[C@H]1C2CCC(CC2)[C@@H]1Nc1nc(-c2c[nH]c3ncc(F)cc23)ncc1F ... TRUE

Now for another entry.
Data request: Hi, just wondering whether O=C(c1cc(=O)[nH]c2ccccc12)N1CCc2[nH]c3ccccc3c2C1 shows pKd of 7 or higher.
Data returned: FALSE
